Values of pKi for Histamine H1 receptor (Homo sapiens, UniProt P35367), collected from a number of published sources:
pKi: −log10 of the molar value.

Here's what some known entries look like.
> print(dat)
                                   compound  parameter  experimental.result
1        CCCN(C)CCC1=C(Cc2cnccn2)c2ccccc2C1        pKi               ≥ 6.60
2  CC1(COCCN2CCN(c3nc(N)nc4c3CCc3cc(OCc5ccc(Cl)cc5)ccc3-4)CC2)CCC(C(=O)O)CC1 (centres unmarked)        pKi               > 7.00
3      Fc1ccc2c(c1)CC(CCN1CCC1)=C2Cc1cccnn1        pKi               ≥ 6.60
4         COc1cccnc1Cc1c(CCN(C)C)sc2ccccc12        pKi               ≥ 6.00

Please look at the following compound next.
For the compound shown here, `CN1CCN(c2nc(N)nc3c2CCc2cc(NS(=O)(=O)c4ccc(Cl)s4)ccc2-3)CC1` , give the reported pKi.
6.30 to 7.00

---

pKi: −log10 of the molar value.
Values of pKi for UniProtKB P35367, collected from a number of published sources:

Here's what some known entries look like.
> print(dat)
                                   compound  experimental.result
1  Nc1nc2c(c(N3CCNCC3)n1)CCc1cc(OCc3ccc(OC(F)(F)F)cc3)ccc1-2               > 7.00
2  Nc1nc2c(c(N3CCN(CCOc4csc(C(=O)O)c4)CC3)n1)CCc1cc(OCc3ccc(OC(F)(F)F)cc3)ccc1-2               > 7.00
3  CC(c1cnccn1)c1c(CCN(C)C)sc2ccccc12 (centres unmarked)               ≥ 6.00
4  Nc1nc2c(c(N3CCN(CCO[C@H]4CC[C@H](C(=O)O)CC4)CC3)n1)CCc1cc(OCc3ccc(Cl)cc3)ccc1-2               > 7.00
5      Cc1cc2c(NCc3cccs3)nc(N3CCNCC3)nc2cn1               > 6.00

For the compound shown here, `c1ccc2c(c1)CC(CCN1CCCC1)=C2Cc1cnccn1` , give the reported pKi.
≥ 6.60

Can you check `C=C(c1ccccn1)c1c(CCN(C)C)sc2ccccc12` next?
≥ 6.00

Can you check `CN1CCN(c2nc(NCCS(=O)(=O)Cc3ccccc3)c3cc(Cl)ncc3n2)CC1` next?
> 6.00

---

Values of pKi for Histamine H1 receptor (Homo sapiens, UniProt P35367), collected from a number of published sources:
pKi: −log10 of the molar value.

Here's what some known entries look like.
> print(dat)
                                   compound                     target.or.test.system  experimental.result
1  c1nc(CC2CCN(CCCOc3ccc(CN4CCCCC4)cc3)CC2)c[nH]1  Histamine H1 receptor (Homo sapiens, UniProt P35367)                 7.54
2  CC(c1ccncc1)c1c(CCN(C)C)sc2ccccc12 (centres unmarked)  Histamine H1 receptor (Homo sapiens, UniProt P35367)               ≥ 6.00
3   C[C@@H](c1ccccn1)c1c(CCN(C)C)sc2ccccc12  Histamine H1 receptor (Homo sapiens, UniProt P35367)               ≥ 6.00
4  Nc1nc2c(c(N3CCN(CCO[C@H]4C[C@@H](C(=O)O)C4)CC3)n1)CCc1cc(OCc3ccc(Cl)cc3)ccc1-2  Histamine H1 receptor (Homo sapiens, UniProt P35367)               > 7.00
5  COc1ccccc1NS(=O)(=O)CCNc1nc(N2CCN(C)CC2)nc2cnc(Cl)cc12  Histamine H1 receptor (Homo sapiens, UniProt P35367)               > 6.00
6  Nc1nc2c(c(N3CCN(CCO[C@H]4C[C@@H](C(=O)O)C4)CC3)n1)CCc1cc(OCc3ccc(OC(F)(F)F)cc3)ccc1-2  Histamine H1 receptor (Homo sapiens, UniProt P35367)               > 7.00
7  CC(c1cccnc1Cl)c1c(CCN(C)C)sc2ccccc12 (centres unmarked)  Histamine H1 receptor (Homo sapiens, UniProt P35367)               ≥ 6.00

For the compound shown here, Cc1ccc2c(C(C)c3ccccn3)c(CCN(C)C)sc2c1 (centres unmarked) , give the reported pKi.
≥ 6.00

---

pKi: −log10 of the molar value.
Values of pKi for UniProtKB P35367, collected from a number of published sources:

Here's what some known entries look like.
> print(dat)
                                   compound  target.or.test.system  parameter  experimental.result
1  Nc1nc2c(c(N3CCN(CCOCCOCCO)CC3)n1)CCc1cc(OCc3ccc(Cl)cc3)ccc1-2       UniProtKB P35367        pKi               > 7.00
2  COc1cccnc1C(C)c1c(CCN(C)C)sc2ccccc12 (stereo not drawn)       UniProtKB P35367        pKi               ≥ 6.00
3  Nc1nc2c(c(N3CCN(CCO[C@@H]4C[C@@H]5[C@H](C4)[C@H]5C(=O)O)CC3)n1)CCc1cc(OCc3ccc(OC(F)(F)F)cc3)ccc1-2       UniProtKB P35367        pKi               > 7.00
4  CC(C)c1cc2c(NCCS(=O)(=O)Nc3ccccc3)nc(N3CCN(C)CC3)nc2cn1       UniProtKB P35367        pKi               > 6.00
5  NCCOCCOCCN1CCN(c2nc(N)nc3c2CCc2cc(OCc4ccc(Cl)cc4)ccc2-3)CC1       UniProtKB P35367        pKi               > 7.00

Lab request: please report pKi under test system UniProtKB P35367 for `Cc1nn(-c2ncccc2CO)cc1CN1CCC2(CC1)OCC(F)(F)c1cc(Cl)sc12`
< 5.30

Can you check `Nc1nc2c(c(N3CCN(CCO[C@H]4C[C@@H](C(=O)O)C4)CC3)n1)CCc1cc(OCc3ccc(S(=O)(=O)C(F)(F)F)cc3)ccc1-2` next?
> 7.00

Can you check `C[C@]1(C(=O)O)C[C@H](OCCN2CCN(c3nc(N)nc4c3CCc3cc(OCc5ccc(Cl)cc5)ccc3-4)CC2)C1` next?
> 7.00

Can you check `C[C@@H](c1ccc(F)cn1)c1c(CCN(C)C)sc2ccccc12` next?
≥ 6.00

Can you check `Nc1nc2c(c(N3CCN(CCOCCOCC(=O)O)CC3)n1)CCc1cc(OCc3ccc(Cl)cc3)ccc1-2` next?
> 7.00

Can you check CC(CC1=C(Cc2cnccn2)c2ccccc2C1)N1CCCC1 (stereo not drawn) next?
≥ 6.60

Can you check `CN1CCN(c2nc(N)nc3c2CCc2cc(NS(=O)(=O)c4ccc(OC(F)(F)F)cc4)ccc2-3)CC1` next?
> 7.00

Can you check O=S(=O)(c1ccc(Cl)cc1)N1CCC(CCc2c[nH]cn2)C1 (stereo not drawn) next?
6.18

---

pKi: −log10 of the molar value.
Values of pKi for Histamine H1 receptor (Homo sapiens, UniProt P35367), collected from a number of published sources:

> print(dat)
                                   molecule  experimental.result
1  CC(c1cccnc1F)c1c(CCN(C)C)sc2ccccc12 (stereo not shown)               ≥ 6.00
2  Nc1nc2c(c(N3CCN(CCO[C@@H]4CO[C@@H](C(=O)O)C4)CC3)n1)CCc1cc(OCc3ccc(OC(F)(F)F)cc3)ccc1-2               > 7.00
3  N#CCOCCOCCN1CCN(c2nc(N)nc3c2CCc2cc(OCc4ccc(Cl)cc4)ccc2-3)CC1               > 7.00

For the molecule shown here, `CC(C)(C(=O)O)c1ccc(C(=O)CCCN2CCC(OC(c3ccccc3)c3ccccc3)CC2)cc1` , give the reported pKi.
7.82

Can you check `Nc1nc2c(c(N3CCNCC3)n1)CCc1cc(OCc3ccc(Cl)cc3)ccc1-2` next?
> 7.00

Can you check `CN(C)[C@H]1CCN(c2nc(N)nc3c2CCc2cc(OCc4ccccc4)ccc2-3)C1` next?
6.30 to 7.00

Can you check `CC(C)(C(=O)O)[C@H]1C[C@H](OCCN2CCN(c3nc(N)nc4c3CCc3cc(OCc5ccc(OC(F)(F)F)cc5)ccc3-4)CC2)C1` next?
> 7.00

---

Values of Ki for Histamine H1 receptor (Homo sapiens), collected from a number of published sources:

Here's what some known entries look like.
> print(dat)
                                   compound  parameter  experimental.result
1       C=C(c1cccnc1)c1c(CCN(C)C)sc2ccccc12         Ki               ≤ 1 µM
2  COc1ccc(S(=O)(=O)Nc2ccc3c(c2)CCc2c-3nc(N)nc2N2CCN(C)CC2)cc1         Ki             < 0.1 µM
3  CCOCC(C)C1=C(CCN(C)C)Cc2ccccc21 (stereo not drawn)         Ki            ≤ 0.25 µM
4  Cc1cnc(C(C)C2=C(CCN(C)C)Cc3ccccc32)o1 (stereo not drawn)         Ki            ≤ 0.25 µM
5  CC(C#N)C1=C(CCN(C)C)Cc2cc(Cl)ccc21 (stereo not drawn)         Ki            ≤ 0.25 µM

For the compound shown here, `CN1CCN(c2nc(NCCS(=O)(=O)N(C)c3ccccc3)c3cc(Cl)ncc3n2)CC1` , give the reported Ki.
< 1 µM

Can you check `Nc1nc2c(c(N3CCN(CCO[C@H]4C[C@@H](C(=O)O)C4)CC3)n1)CCc1cc(OCc3ccc(OC(F)(F)F)cc3F)ccc1-2` next?
< 0.1 µM

Can you check `CN1CCN(c2nc(N)nc3c2CCc2cc(NS(=O)(=O)c4ccc(Cl)cc4)ccc2-3)CC1` next?
< 0.1 µM

Can you check CC(C1=C(CCN(C)C)Cc2ccccc21)c1ccncn1 (stereo not drawn) next?
≤ 0.25 µM

Can you check CC(C(=O)OC(C)(C)C)C1=C(CCN(C)C)Cc2ccccc21 (stereo not drawn) next?
≤ 0.25 µM

Can you check `Nc1nc2c(c(N3CCN(CCOc4ccc(C(=O)O)cc4)CC3)n1)CCc1cc(OCc3ccc(Cl)cc3)ccc1-2` next?
0.1 to 0.5 µM

Can you check `Nc1nc2c(c(N3CCN(CCOCCSCC(=O)O)CC3)n1)CCc1cc(OCc3ccc(OC(F)(F)F)cc3)ccc1-2` next?
< 0.1 µM

Can you check COc1ncccc1C(C)c1c(CCN(C)C)sc2ccccc12 (stereo not drawn) next?
≤ 1 µM

Can you check `CN1CCN(c2nc(N)nc3c2CCc2cc(NS(=O)(=O)c4ccc(Cl)c(F)c4)ccc2-3)CC1` next?
< 0.1 µM
